# assay_procedure: Cytotoxicity against human MT4 cells assessed as cell viability
# Type: cell-based
measurement_type: CC50 (µM)
Please give a number only; it is taken to be in µM.

# count of solved cases: 2
Cc1cc(C)cc(Cn2c(SCC(=O)Nc3ccc(S(C)(=O)=O)cc3Cl)nc3ccc(Cl)cc32)c1
88.8
Cc1cc(C)cc(Cn2c(=S)[nH]c3ccccc32)c1
5.74

Ask | Returns the measured CC50 for the input compound. Input: `Cc1cc(C)cc(Cn2c(SCC(=O)Nc3ccc(S(C)(=O)=O)cc3Cl)nc3ccccc32)c1`
Reply | 106

Ask | Please report the recorded CC50 for `Cc1cc(C)cc(S(=O)(=O)n2c(SCC(=O)Nc3ccc(C)cc3Cl)nc3ccccc32)c1` .
Reply | 5.4

Ask | Endpoint output: CC50 of `Cc1cc(C)cc(S(=O)(=O)n2c(SCC(=O)Nc3ccccc3Cl)nc3ccc(Cl)cc32)c1` . Value?
Reply | 99.3

Ask | Name the reported CC50 value associated with the compound `Cc1cc(C)cc(S(=O)(=O)n2c(=S)[nH]c3ccccc32)c1`
Reply | 41

Ask | Record request: CC50 value, item `Cc1cc(C)cc(Cn2c(SCC(=O)Nc3ccc(C)cc3Cl)nc3ccc(Cl)cc32)c1`
Reply | 79.3

====

# Tested on: Human immunodeficiency virus 1
# assay_procedure: Antiviral activity against NNRTI-resistant HIV-1 RES056 harboring reverse transcriptase K103N/Y181C double mutant
# Type: functional, organism-based
Active and inactive are the calls of the source. The calls are words filed in the database; no cut-off is given here.
measurement_type: Activity

COC(=O)c1ccc(NC(=O)CSc2nc3ccc(Cl)cc3n2Cc2cc(C)cc(C)c2)c(Cl)c1
inactive
COC(=O)c1ccc(NC(=O)CSc2nc3ccccc3n2S(=O)(=O)c2cc(C)cc(C)c2)c(Cl)c1
inactive
Cc1cc(C)cc(S(=O)(=O)n2c(=S)[nH]c3ccc(Cl)cc32)c1
inactive
Cc1cc(C)cc(Cn2c(=S)[nH]c3ccccc32)c1
inactive
Cc1cc(C)cc(S(=O)(=O)n2c(SCC(=O)Nc3ccc(C)cc3Cl)nc3ccccc32)c1
inactive

Ask | Entry `Cc1cc(C)cc(Cn2c(SCC(=O)Nc3ccccc3Cl)nc3ccc(Cl)cc32)c1` has what Activity?
Reply | inactive

Ask | Form field: reported Activity of `Cc1cc(C)cc(S(=O)(=O)n2c(SCC(=O)Nc3ccc(S(C)(=O)=O)cc3Cl)nc3ccccc32)c1`
Reply | inactive

Ask | Form field: reported Activity of `Cc1cc(C)cc(S(=O)(=O)n2c(SCC(=O)Nc3ccc(S(N)(=O)=O)cc3Cl)nc3ccc(Cl)cc32)c1`
Reply | inactive

Ask | Which Activity value is on record for `Cc1cc(C)cc(S(=O)(=O)n2c(SCC(=O)Nc3ccccc3Br)nc3ccccc32)c1` ?
Reply | inactive

Ask | Look up Activity for this compound: `Cc1cc(C)cc(Cn2c(SCC(=O)Nc3ccc(S(C)(=O)=O)cc3Cl)nc3ccc(Cl)cc32)c1`
Reply | inactive

Ask | Give its Activity value. Item: `Cc1cc(C)cc(Cn2c(SCC(=O)Nc3ccccc3[N+](=O)[O-])nc3ccc(Cl)cc32)c1`
Reply | inactive

Ask | Request the reported Activity associated with `Cc1cc(C)cc(S(=O)(=O)n2c(SCC(=O)Nc3ccccc3[N+](=O)[O-])nc3ccccc32)c1`
Reply | inactive

Ask | Endpoint output: Activity of `Cc1cc(C)cc(Cn2c(SCC(=O)Nc3ccc(S(C)(=O)=O)cc3Cl)nc3ccccc32)c1` . Value?
Reply | inactive

Ask | Fill in the blank: the reported Activity of `Cc1cc(C)cc(S(=O)(=O)n2c(=S)[nH]c3ccccc32)c1` is ____.
Reply | inactive

====

# target_of_assay: Human immunodeficiency virus type 1 reverse transcriptase (Human immunodeficiency virus 1, UniProt Q72547)
# assay_procedure: Inhibition of GST-tagged recombinant wild type HIV-1 reverse transcriptase p66/p51 RNA-dependent DNA polymerase activity expressed in Escherichia coli JM109 using dTTP as substrate after 40 mins by spectrofluorometric analysis
measurement_type: pIC50
# log scale: pIC50 equals minus log10 of the concentration in mol/L

Cc1cc(C)cc(S(=O)(=O)n2c(=S)[nH]c3ccccc32)c1
5.87
Cc1cc(C)cc(S(=O)(=O)n2c(SCC(=O)Nc3ccccc3[N+](=O)[O-])nc3ccccc32)c1
4.00
Cc1cc(C)cc(S(=O)(=O)n2c(SCC(=O)Nc3ccccc3Br)nc3ccccc32)c1
6.74
Cc1cc(C)cc(Cn2c(SCC(=O)Nc3ccccc3Br)nc3ccccc32)c1
4.82

Ask | Find the recorded pIC50 belonging to `Cc1cc(C)cc(S(=O)(=O)n2c(SCC(=O)Nc3ccccc3Br)nc3ccc(Cl)cc32)c1` and report it.
Reply | 4.20

Ask | State the recorded pIC50 for this entry: `Cc1cc(C)cc(Cn2c(=S)[nH]c3ccccc32)c1`
Reply | 4.56

Ask | Give the measured pIC50 of `Cc1cc(C)cc(S(=O)(=O)n2c(SCC(=O)Nc3ccccc3Cl)nc3ccc(Cl)cc32)c1` .
Reply | 4.73

Ask | What value of pIC50 has been reported for the following molecule? `Cc1cc(C)cc(S(=O)(=O)n2c(SCC(=O)Nc3ccc(C)cc3Cl)nc3ccccc32)c1`
Reply | 6.26

====

# System: Human immunodeficiency virus 1
# assay_procedure: Antiviral activity against NNRTI-resistant HIV-1 RES056 harboring reverse transcriptase K103N/Y181C double mutant
# Type: functional, organism-based
Activity calls are given as the source filed them. The rule behind the calls is not given here.
measurement_type: Activity

Solved entries (count: 4):
Cc1cc(C)cc(Cn2c(SCC(=O)Nc3ccccc3Br)nc3ccccc32)c1
inactive
Cc1cc(C)cc(S(=O)(=O)n2c(SCC(=O)Nc3ccccc3[N+](=O)[O-])nc3ccc(Cl)cc32)c1
inactive
Cc1cc(C)cc(Cn2c(SCC(=O)Nc3ccc(C)cc3Cl)nc3ccc(Cl)cc32)c1
inactive
Cc1cc(C)cc(S(=O)(=O)n2c(SCC(=O)Nc3ccccc3Br)nc3ccc(Cl)cc32)c1
inactive

Ask | Would you kindly share the measured Activity for `COC(=O)c1ccc(NC(=O)CSc2nc3ccc(Cl)cc3n2S(=O)(=O)c2cc(C)cc(C)c2)c(Cl)c1` ?
Reply | inactive

====

# target_of_assay: UniProtKB Q72547
# assay_procedure: Inhibition of GST-tagged recombinant wild type HIV-1 reverse transcriptase p66/p51 RNA-dependent DNA polymerase activity expressed in Escherichia coli JM109 using dTTP as substrate after 40 mins by spectrofluorometric analysis
measurement_type: log10(IC50) (log10 of the value in µM)
Parameter value (number): base-10 log of IC50 in µM.

Cc1cc(C)cc(S(=O)(=O)n2c(=S)[nH]c3ccc(Cl)cc32)c1
0.25
Cc1cc(C)cc(S(=O)(=O)n2c(SCC(=O)Nc3ccc(S(N)(=O)=O)cc3Cl)nc3ccc(Cl)cc32)c1
0.48
Cc1cc(C)cc(Cn2c(SCC(=O)Nc3ccc(C)cc3Cl)nc3ccccc32)c1
2.25

Ask | Request the reported log10(IC50) associated with `Cc1cc(C)cc(S(=O)(=O)n2c(SCC(=O)Nc3ccc(S(N)(=O)=O)cc3Cl)nc3ccccc32)c1`
Reply | 1.27

Ask | Name the recorded log10(IC50) for `Cc1cc(C)cc(Cn2c(SCC(=O)Nc3ccc(S(N)(=O)=O)cc3Cl)nc3ccccc32)c1` .
Reply | 0.01

Ask | Need log10(IC50) of `Cc1cc(C)cc(S(=O)(=O)n2c(SCC(=O)Nc3ccccc3[N+](=O)[O-])nc3ccc(Cl)cc32)c1` , thanks.
Reply | 1.57

Ask | GET /values?readout=log10(IC50)&item= `Cc1cc(C)cc(Cn2c(SCC(=O)Nc3ccccc3Cl)nc3ccccc32)c1`
Reply | 1.62

====

# target_of_assay: Human immunodeficiency virus type 1 reverse transcriptase (Human immunodeficiency virus 1, UniProt Q72547)
# assay_procedure: Inhibition of GST-tagged recombinant wild type HIV-1 reverse transcriptase p66/p51 RNA-dependent DNA polymerase activity expressed in Escherichia coli JM109 using dTTP as substrate after 40 mins by spectrofluorometric analysis
// returns no unless IC50 is strictly below 4 µM, in which case yes

Solved cases below.
Cc1cc(C)cc(Cn2c(SCC(=O)Nc3ccc(S(C)(=O)=O)cc3Cl)nc3ccc(Cl)cc32)c1
no
Cc1cc(C)cc(S(=O)(=O)n2c(SCC(=O)Nc3ccc(S(C)(=O)=O)cc3Cl)nc3ccc(Cl)cc32)c1
yes
Cc1cc(C)cc(S(=O)(=O)n2c(SCC(=O)Nc3ccc(S(C)(=O)=O)cc3Cl)nc3ccccc32)c1
yes

Ask | Given the entry `COC(=O)c1ccc(NC(=O)CSc2nc3ccc(Cl)cc3n2S(=O)(=O)c2cc(C)cc(C)c2)c(Cl)c1` , would its reported IC50 be below 4 µM?
Reply | no

Ask | Is it true that IC50 reported for `Cc1cc(C)cc(S(=O)(=O)n2c(SCC(=O)Nc3ccccc3Cl)nc3ccccc32)c1` is less than 4 µM?
Reply | no

Ask | Hello, is IC50 of the following compound strictly smaller than 4 µM? `COC(=O)c1ccc(NC(=O)CSc2nc3ccccc3n2S(=O)(=O)c2cc(C)cc(C)c2)c(Cl)c1`
Reply | no

Ask | Does the reported IC50 of `Cc1cc(C)cc(Cn2c(SCC(=O)Nc3ccc(S(N)(=O)=O)cc3Cl)nc3ccc(Cl)cc32)c1` stay below 4 µM?
Reply | no

Numbers sourced from ChEMBL document CHEMBL3112470.
